Entry source: patent US9399626B2

target entity: MPO (purified from human polynuclear leukocytes) (Homo sapiens)
Construct: purified from human polynuclear leukocytes; purchased Calbiochem/EMD Biosciences; host or cells: human polynuclear leukocytes (natural source)
Sequence (P05164 279-745 limits assumed): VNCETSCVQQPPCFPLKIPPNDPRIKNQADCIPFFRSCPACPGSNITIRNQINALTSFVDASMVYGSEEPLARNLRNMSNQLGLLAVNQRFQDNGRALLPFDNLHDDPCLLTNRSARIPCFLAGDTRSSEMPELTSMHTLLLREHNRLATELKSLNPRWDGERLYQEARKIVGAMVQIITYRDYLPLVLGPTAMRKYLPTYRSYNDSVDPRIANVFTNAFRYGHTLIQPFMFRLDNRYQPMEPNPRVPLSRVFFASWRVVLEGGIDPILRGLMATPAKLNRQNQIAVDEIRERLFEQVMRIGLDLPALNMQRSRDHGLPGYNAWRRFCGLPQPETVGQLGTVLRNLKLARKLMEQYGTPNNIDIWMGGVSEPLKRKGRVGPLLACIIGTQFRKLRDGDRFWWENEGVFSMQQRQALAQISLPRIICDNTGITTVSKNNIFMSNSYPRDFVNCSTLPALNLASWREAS
Sequence (P05164 165-273 limits assumed): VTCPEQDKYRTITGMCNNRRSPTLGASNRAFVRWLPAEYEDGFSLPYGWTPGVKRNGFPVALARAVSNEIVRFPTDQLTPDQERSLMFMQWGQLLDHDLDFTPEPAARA
assay summary: MPO Amplex Red Activity Assay
Assay type: biochemical
cond: Table 1, 2 μM H2O2, pH 7.4
Structures can show the parent of a compound that is named as a salt.
metric: MPO kinact/Ki

A selection of reference data follows.
- compound: "COc1ccc(-c2cc(=O)[nH]c(=S)n2C[C@H]2CCCO2)c(OC)c1"
  target entity: "MPO (purified from human polynuclear leukocytes) (Homo sapiens)"
  MPO kinact/Ki: "10700 1/s per M"
- compound: "COCCn1c(-c2cc(OC)c(Cl)cc2OC)cc(=O)[nH]c1=S"
  target entity: "MPO (purified from human polynuclear leukocytes) (Homo sapiens)"
  MPO kinact/Ki: "2510 1/s per M"
- compound: "COCCn1c(-c2cccc3ncsc23)cc(=O)[nH]c1=S"
  target entity: "MPO (purified from human polynuclear leukocytes) (Homo sapiens)"
  MPO kinact/Ki: "9730 1/s per M"
- compound: "COCCn1c(-c2ccnc(OC)c2)cc(=O)[nH]c1=S"
  target entity: "MPO (purified from human polynuclear leukocytes) (Homo sapiens)"
  MPO kinact/Ki: "762 1/s per M"
- compound: "COc1ccc(-c2cc(=O)[nH]c(=S)n2CCO)c(OC)c1"
  target entity: "MPO (purified from human polynuclear leukocytes) (Homo sapiens)"
  MPO kinact/Ki: "29300 1/s per M"
- compound: "COCCn1c(-c2ccc3ccccc3c2OC)cc(=O)[nH]c1=S"
  target entity: "MPO (purified from human polynuclear leukocytes) (Homo sapiens)"
  MPO kinact/Ki: "4380 1/s per M"
- compound: "COc1ccc(-c2cc(=O)[nH]c(=S)n2C[C@@H]2CCCNC2)c(OC)c1 [Example 151, hydrochloride]"
  target entity: "MPO (purified from human polynuclear leukocytes) (Homo sapiens)"
  MPO kinact/Ki: "3740 1/s per M"
- compound: "COc1ccc(-c2cc(=O)[nH]c(=S)n2C[C@@H](C)N)c(OC)c1 [Example 175, hydrochloride]"
  target entity: "MPO (purified from human polynuclear leukocytes) (Homo sapiens)"
  MPO kinact/Ki: "459 1/s per M"

INPUT: Request: MPO kinact/Ki, test system MPO (purified from human polynuclear leukocytes) (Homo sapiens), entry NCCn1c(-c2csc3ccccc23)cc(=O)[nH]c1=S [Example 36, hydrochloride]
OUTPUT: 5980 1/s per M

INPUT: Query for MPO (purified from human polynuclear leukocytes) (Homo sapiens): what MPO kinact/Ki does the record show for COCCn1c(-c2ccc(O)cc2)cc(=O)[nH]c1=S ?
OUTPUT: 1500 1/s per M

INPUT: Field: MPO kinact/Ki (MPO (purified from human polynuclear leukocytes) (Homo sapiens)). Entry: COc1cc(-c2cc(=O)[nH]c(=S)n2CC(N)=O)c(OC)cc1C
OUTPUT: 6500 1/s per M

INPUT: Form field - read-out: MPO kinact/Ki; system: MPO (purified from human polynuclear leukocytes) (Homo sapiens); submitted item: COc1cc(-c2cc(=O)[nH]c(=S)n2CCO)c(OC)cc1Cl
OUTPUT: 7690 1/s per M

INPUT: Recall the recorded MPO kinact/Ki for COc1ccc(-c2cc(=O)[nH]c(=S)n2CCC(=O)N(C)C)c(OC)c1 with MPO (purified from human polynuclear leukocytes) (Homo sapiens) and state it.
OUTPUT: 2360 1/s per M

INPUT: Give MPO kinact/Ki (MPO (purified from human polynuclear leukocytes) (Homo sapiens)) of the following compound: CCOC(=O)Cn1c(-c2ccc(OC)cc2OC)cc(=O)[nH]c1=S
OUTPUT: 6230 1/s per M

INPUT: State its MPO kinact/Ki on MPO (purified from human polynuclear leukocytes) (Homo sapiens): NC(=O)Cn1c(-c2ccc3c(c2)CCO3)cc(=O)[nH]c1=S
OUTPUT: 6460 1/s per M

INPUT: What measured MPO kinact/Ki is associated with COc1ccc(-c2cc(=O)[nH]c(=S)n2CCOCCN)c(OC)c1 [Example 269, hydrochloride] on MPO (purified from human polynuclear leukocytes) (Homo sapiens)?
OUTPUT: 9510 1/s per M

INPUT: Return MPO kinact/Ki measured with MPO (purified from human polynuclear leukocytes) (Homo sapiens) given this compound: COc1cc(OC)c(-c2cc(=O)[nH]c(=S)n2CCN)cc1OC [Example 198, hydrochloride]
OUTPUT: 8460 1/s per M

INPUT: Give the reported MPO kinact/Ki for COc1cc(OC)c(-c2cc(=O)[nH]c(=S)n2CCN)cc1F [Example 90, hydrochloride] (system: MPO (purified from human polynuclear leukocytes) (Homo sapiens)).
OUTPUT: 11600 1/s per M

INPUT: Query the reported MPO kinact/Ki for MPO (purified from human polynuclear leukocytes) (Homo sapiens); item: NCCCn1c(-c2ccccc2OCCO)cc(=O)[nH]c1=S [Example 88, hydrochloride]
OUTPUT: 898 1/s per M

INPUT: Kindly state the measured MPO kinact/Ki obtained for COc1ncc(Cl)cc1-c1cc(=O)[nH]c(=S)n1CC(N)=O with MPO (purified from human polynuclear leukocytes) (Homo sapiens).
OUTPUT: 5080 1/s per M

INPUT: Test system MPO (purified from human polynuclear leukocytes) (Homo sapiens); read-out MPO kinact/Ki; what value for CSc1ccccc1-c1cc(=O)[nH]c(=S)n1CCO ?
OUTPUT: 7640 1/s per M

INPUT: Under MPO (purified from human polynuclear leukocytes) (Homo sapiens): MPO kinact/Ki value of COc1cc(OC)c(-c2cc(=O)[nH]c(=S)n2CCCN)cc1Cl [Example 129, hydrochloride] ?
OUTPUT: 18700 1/s per M

INPUT: Query the reported MPO kinact/Ki for MPO (purified from human polynuclear leukocytes) (Homo sapiens); item: COc1ccc(Cl)cc1-c1cc(=O)[nH]c(=S)n1C[C@@H](O)CN [Example 113, trifluoroacetate]
OUTPUT: 25900 1/s per M

INPUT: Checklist item: MPO kinact/Ki tested on MPO (purified from human polynuclear leukocytes) (Homo sapiens), entry COCCn1c(-c2ccc3c(c2)OCCO3)cc(=O)[nH]c1=S , value?
OUTPUT: 7480 1/s per M

INPUT: Form entry - test system: MPO (purified from human polynuclear leukocytes) (Homo sapiens); read-out: MPO kinact/Ki; compound: COc1ccc(-c2cc(=O)[nH]c(=S)n2CCNC(=O)[C@@H](N)C(C)C)c(OC)c1 [Example 263, trifluoroacetate]
OUTPUT: 4340 1/s per M

INPUT: Lab note: need MPO kinact/Ki for COCCn1c(-c2ccco2)cc(=O)[nH]c1=S on MPO (purified from human polynuclear leukocytes) (Homo sapiens), anyone have it?
OUTPUT: 767 1/s per M
